Target: PI3K delta (Homo sapiens (Human), UniProt O00329)
Sequence (O00329 other isoform, or with tags, fused parts or gaps linker GGGGGG): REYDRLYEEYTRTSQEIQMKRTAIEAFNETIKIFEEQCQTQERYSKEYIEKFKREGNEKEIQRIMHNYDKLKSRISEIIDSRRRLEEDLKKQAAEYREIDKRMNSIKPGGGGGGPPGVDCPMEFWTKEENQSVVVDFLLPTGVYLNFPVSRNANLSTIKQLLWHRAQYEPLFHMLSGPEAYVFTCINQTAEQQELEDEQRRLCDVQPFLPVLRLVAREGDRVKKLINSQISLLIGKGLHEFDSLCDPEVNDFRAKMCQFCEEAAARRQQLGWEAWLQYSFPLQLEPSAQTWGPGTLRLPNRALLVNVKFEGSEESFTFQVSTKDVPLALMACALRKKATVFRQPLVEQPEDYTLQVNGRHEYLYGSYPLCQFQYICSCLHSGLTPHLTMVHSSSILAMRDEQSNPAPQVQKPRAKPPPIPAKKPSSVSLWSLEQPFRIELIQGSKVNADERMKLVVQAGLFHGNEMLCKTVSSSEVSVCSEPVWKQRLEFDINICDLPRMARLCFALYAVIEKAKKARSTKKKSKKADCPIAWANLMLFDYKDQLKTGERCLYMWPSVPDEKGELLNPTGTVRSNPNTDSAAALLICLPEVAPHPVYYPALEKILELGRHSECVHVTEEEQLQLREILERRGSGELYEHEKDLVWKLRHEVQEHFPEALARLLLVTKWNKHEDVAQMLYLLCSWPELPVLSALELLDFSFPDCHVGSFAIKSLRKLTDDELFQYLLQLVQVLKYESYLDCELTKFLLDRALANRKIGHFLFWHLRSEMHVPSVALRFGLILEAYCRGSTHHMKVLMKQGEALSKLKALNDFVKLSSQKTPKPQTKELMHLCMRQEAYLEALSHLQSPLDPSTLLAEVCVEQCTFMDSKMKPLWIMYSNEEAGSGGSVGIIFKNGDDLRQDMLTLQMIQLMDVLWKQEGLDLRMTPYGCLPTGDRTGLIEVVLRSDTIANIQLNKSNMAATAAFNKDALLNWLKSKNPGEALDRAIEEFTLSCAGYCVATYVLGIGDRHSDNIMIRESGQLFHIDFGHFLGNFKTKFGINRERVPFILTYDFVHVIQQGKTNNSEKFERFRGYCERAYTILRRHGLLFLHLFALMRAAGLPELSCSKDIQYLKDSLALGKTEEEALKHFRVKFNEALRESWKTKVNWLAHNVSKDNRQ
Assay: Enzymatic PI3K delta isoform inhibition (lipid kinase activity, Kinase-Glo luminescence)
Details: Enzymatic assay
Procedure: 1.1 Test of Lipid Kinase Activity […] In a more preferred assay, the kinase reaction is performed in a final volume of 10 μl per well of a low volume non-binding CORNING, 384 well black plate (Cat. No. #3676). […] IC50 is determined by a four parameter curve fitting routine that comes along with “excel fit”. […] Alternatively, IC50 values are calculated using idbsXLfit model 204, which is a 4 parameter logistic model. […]
ENDPOINT: IC50 (nM)

COMPOUND: COc1ccc(N2CCOc3ccc(O[C@H]4CCN(C(=O)C5CCOCC5)C4)cc32)cn1 [Example D30]
TESTED SYSTEM: PI3K delta (Homo sapiens (Human), UniProt O00329)
UNITS SYMBOL: nM
RECORDED RESULT: 127
--
COMPOUND: [2H]C1([2H])COc2ccc(O[C@H]3CCN(C(=O)c4cn(C)cn4)C3)cc2N1c1cnc(OC)c(C#N)c1 [Example B30]
TESTED SYSTEM: PI3K delta (Homo sapiens (Human), UniProt O00329)
UNITS SYMBOL: nM
RECORDED RESULT: 15.5
--
COMPOUND: Cc1cc(N2CCOc3ccc(O[C@H]4CCN(S(=O)(=O)C5CC5)C4)cc32)cnc1S(C)(=O)=O [Example B83]
TESTED SYSTEM: PI3K delta (Homo sapiens (Human), UniProt O00329)
UNITS SYMBOL: nM
RECORDED RESULT: 29
--
COMPOUND: COc1ncc(N2CCOc3ccc(O[C@H]4CCN(C(=O)C5CCS(=O)(=O)C5)C4)cc32)cc1C (single isomer, unassigned) [Example B27]
TESTED SYSTEM: PI3K delta (Homo sapiens (Human), UniProt O00329)
UNITS SYMBOL: nM
RECORDED RESULT: 55

P = Cc1cc(N2CCOc3ccc(O[C@H]4CCN(C(=O)Cc5ccncc5)C4)cc32)cnc1S(C)(=O)=O [Example B68]
Q = COc1cc(N2CCOc3ccc(O[C@H]4CCN(C(=O)C5CCOC5)C4)cc32)cnc1OC (stereo partly shown) [Example B40]
## Task For the two items P and Q , which reports the higher IC50 value? Kindly state the label of the option you pick.
## Result P
(P: 39 nM, Q: 12 nM)

* * *

Molecular target: PI3K delta (Homo sapiens (Human), UniProt O00329)
Assay: Enzymatic PI3K delta isoform inhibition (lipid kinase activity, Kinase-Glo luminescence)
Settings: Enzymatic assay
Procedure: 1.1 Test of Lipid Kinase Activity […] In a more preferred assay, the kinase reaction is performed in a final volume of 10 μl per well of a low volume non-binding CORNING, 384 well black plate (Cat. No. #3676). […] IC50 is determined by a four parameter curve fitting routine that comes along with “excel fit”. […] Alternatively, IC50 values are calculated using idbsXLfit model 204, which is a 4 parameter logistic model. […]
pIC50: −log10 of the molar value.
ENDPOINT: pIC50

COMPOUND: COc1ncc(N2CCOc3ccc(O[C@H]4CCN(C(=O)CC(C)C)C4)cc32)cc1C#N [Example D10]
pIC50: 7.21

a = COc1ncc(N2CCOc3ccc(O[C@H]4CCN(C(=O)c5cncnc5)C4)cc32)cc1F [Example B104]
b = COc1ncc(N2CCOc3ccc(O[C@H]4CCN(C(=O)C5CCS(=O)(=O)C5)C4)cc32)cc1Cl (single isomer, unassigned) [Example H13]
c = CCC(=O)N1CC[C@@H](Oc2ccc3c(c2)N(c2ccc(OC)nc2)CCO3)C1 [Example C3]
## Task Arrange items by their pIC50 values in increasing order. List the labels, following the order given in the request.
## Result c, a, b
(c: 5.92, a: 6.79, b: 8.05)

Just for reference, patent US9539260B2 is where these values come from.
